// provenance: PubChem BioAssay AID2060614

Tested on: 598228-144-R-J1-PDC complex spheroids, viability
Test: Anticancer human tumor 598228-144-R-J1-PDC patient-derived serous endometrial adenocarcinoma cell line growth inhibition [CLK]
Settings: second compound 0.316 µM; first compound 3.16 µM; hits give low values
For each of the compounds below, state its viability, T/C.
API: value field is a number in %; no unit string.

Task: Param item = C=C(F)C(=O)N1CCN(c2nc(OCC3CCCN3C)nc3c2CCN(c2cccc4cccc(Cl)c24)C3)CC1CC#N (stereo not drawn) + CNC(=O)c1ccc(Nc2nc(OC3CCCC3)c3c(-c4ccc5nc(C)oc5c4)c[nH]c3n2)c(OC)c1 ; retrieve measured viability, T/C.
Result: 83.9

Task: Continue with Nc1ccn(C2OC(CO)C(O)C2(F)F)c(=O)n1 (stereo not drawn) + CNC(=O)c1ccc(Nc2nc(OC3CCCC3)c3c(-c4ccc5nc(C)oc5c4)c[nH]c3n2)c(OC)c1
Result: 39.5

Task: For C#Cc1c(F)ccc2cc(O)cc(-c3ncc4c(N5CC6CCC(C5)N6)nc(OCC56CCCN5CC(F)C6)nc4c3F)c12 (stereo not drawn) + CN1CCN(c2cc(C(=O)Nc3cc4cc(-c5cnn(C)c5)ccc4cn3)ccn2)CC1 then?
Result: 17.8

---

Test system: 598228-144-R-J1-PDC complex spheroids, viability
Test: Anticancer human tumor 598228-144-R-J1-PDC cell line growth inhibition [CLK]
Settings: second compound 3.16 µM; first compound 0.00316 µM; hits give low values
Hi! Could you tag entries with viability, T/C below 2% as T, and those at or above as F? Much appreciated.

Task: Hello, I'm reviewing records and need to know if viability, T/C of CCc1c2c(nc3ccc(O)cc13)-c1cc3c(c(=O)n1C2)COC(=O)[C@]3(O)CC + CN1CCN(c2cc(C(=O)Nc3cc4cc(-c5cnn(C)c5)ccc4cn3)ccn2)CC1 is below 2%. Could you check?
Result: T

Task: Please do the same for Cn1ncnc1[C@H]1c2n[nH]c(=O)c3cc(F)cc(c23)N[C@@H]1c1ccc(F)cc1 + CN1CCN(c2cc(C(=O)Nc3cc4cc(-c5cnn(C)c5)ccc4cn3)ccn2)CC1 as well.
Result: T

Task: Try this compound next: CCN1CCN(Cc2ccc(Nc3ncc(F)c(-c4cc(F)c5nc(C)n(C(C)C)c5c4)n3)nc2)CC1 + CN1CCN(c2cc(C(=O)Nc3cc4cc(-c5cnn(C)c5)ccc4cn3)ccn2)CC1
Result: T

Task: Lookup COc1c(OCCCN2CCOCC2)ccc2c3n(c(=NC(=O)c4cnc(N)nc4)nc12)CCN3 + CNC(=O)c1ccc(Nc2nc(OC3CCCC3)c3c(-c4ccc5nc(C)oc5c4)c[nH]c3n2)c(OC)c1
Result: F

Task: And then CCN1CCN(Cc2ccc(Nc3ncc(F)c(-c4cc(F)c5nc(C)n(C(C)C)c5c4)n3)nc2)CC1 + CNC(=O)c1ccc(Nc2nc(OC3CCCC3)c3c(-c4ccc5nc(C)oc5c4)c[nH]c3n2)c(OC)c1 , what is it?
Result: F

---

Test system: 598228-144-R-J1-PDC complex spheroids, viability
Experiment: Anticancer human tumor 598228-144-R-J1-PDC cell line growth inhibition [CLK];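 further: spheroids exposed to compounds for seven days before readout; 100% = DMSO vehicle control wells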
Settings: second compound 1 µM; first compound 3.16 µM; hits give low values
Reported endpoint: viability, T/C

Task: Which value of viability, T/C has been reported for CC1COCCN1c1cc(C2(S(C)(=N)=O)CC2)nc(-c2ccnc3[nH]ccc23)n1 (stereo not given) + CNC(=O)c1ccc(Nc2nc(OC3CCCC3)c3c(-c4ccc5nc(C)oc5c4)c[nH]c3n2)c(OC)c1 in the records?
Result: 69.1%

Task: Entry to check: CC1COCCN1c1cc(C2(S(C)(=N)=O)CC2)nc(-c2ccnc3[nH]ccc23)n1 (stereo not given) + CN1CCN(c2cc(C(=O)Nc3cc4cc(-c5cnn(C)c5)ccc4cn3)ccn2)CC1
Result: 2.89%

Task: Try C=C(F)C(=O)N1CCN(c2nc(OCC3CCCN3C)nc3c2CCN(c2cccc4cccc(Cl)c24)C3)CC1CC#N (stereo not given) + CNC(=O)c1ccc(Nc2nc(OC3CCCC3)c3c(-c4ccc5nc(C)oc5c4)c[nH]c3n2)c(OC)c1 next.
Result: 72.9%

Task: Param item: O=c1[nH]cc(F)c(=O)[nH]1 + CNC(=O)c1ccc(Nc2nc(OC3CCCC3)c3c(-c4ccc5nc(C)oc5c4)c[nH]c3n2)c(OC)c1
Result: 93.4%

Task: Proceed to CC(CO)NC(=O)c1cc(-c2ccc(Cl)cc2)nn(-c2cnn(C)c2)c1=O (stereo not given) + CNC(=O)c1ccc(Nc2nc(OC3CCCC3)c3c(-c4ccc5nc(C)oc5c4)c[nH]c3n2)c(OC)c1
Result: 111%

---

For each record, write down the corresponding viability, T/C.
Test system: 598228-144-R-J1-PDC complex spheroids, viability
Assay: Anticancer human tumor 598228-144-R-J1-PDC cell line growth inhibition [CLK];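 further: spheroids exposed to compounds for seven days before readout; 100% = DMSO vehicle control wells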
Conditions: second compound 10 µM; first compound 0.00949 µM; hits give low values
The response must be a number in % with no trailing unit.

Task: # lookup: viability, T/C of CC(C)CC(NC(=O)C(Cc1ccccc1)NC(=O)c1cnccn1)B(O)O (stereo unspecified) + CNC(=O)c1ccc(Nc2nc(OC3CCCC3)c3c(-c4ccc5nc(C)oc5c4)c[nH]c3n2)c(OC)c1
Result: 2.24

Task: // query: CC(C)CC(NC(=O)C(Cc1ccccc1)NC(=O)c1cnccn1)B(O)O (stereo unspecified) + CN1CCN(c2cc(C(=O)Nc3cc4cc(-c5cnn(C)c5)ccc4cn3)ccn2)CC1
Result: 0.22

Task: Here is the next compound: C=CC(=O)Nc1cc(Nc2nccc(-c3cn(C)c4ccccc34)n2)c(OC)cc1N(C)CCN(C)C + CN1CCN(c2cc(C(=O)Nc3cc4cc(-c5cnn(C)c5)ccc4cn3)ccn2)CC1
Result: 1.77

Task: // repeat for NC(=O)C(=Cn1cnc(-c2cc(C(F)(F)F)cc(C(F)(F)F)c2)n1)c1cncnc1 + CNC(=O)c1ccc(Nc2nc(OC3CCCC3)c3c(-c4ccc5nc(C)oc5c4)c[nH]c3n2)c(OC)c1 and report
Result: 88.1

Task: Also, NC(=O)C(=Cn1cnc(-c2cc(C(F)(F)F)cc(C(F)(F)F)c2)n1)c1cncnc1 + CN1CCN(c2cc(C(=O)Nc3cc4cc(-c5cnn(C)c5)ccc4cn3)ccn2)CC1 please.
Result: 0.86

Task: One more compound: C=CC(=O)Nc1cc(Nc2nccc(-c3cn(C)c4ccccc34)n2)c(OC)cc1N(C)CCN(C)C + CNC(=O)c1ccc(Nc2nc(OC3CCCC3)c3c(-c4ccc5nc(C)oc5c4)c[nH]c3n2)c(OC)c1
Result: 86.3

---

Tested on: 598228-144-R-J1-PDC complex spheroids, viability
Assay: Anticancer human tumor 598228-144-R-J1-PDC cell line growth inhibition [CLK]; active = viability on the fitted dose curve at most 10% of control; inactive = the rest;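 further: spheroids exposed to compounds for seven days before readout; 100% = DMSO vehicle control wells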
Settings: second compound 0.0316 µM; first compound 0.0949 µM
Respond only with the outcome that fits, drawn from true for active, false for inactive

Task: Identify the outcome logged in this assay for the molecule shown: C=CC(=O)Nc1cc(Nc2nccc(-c3cn(C)c4ccccc34)n2)c(OC)cc1N(C)CCN(C)C + CN1CCN(c2cc(C(=O)Nc3cc4cc(-c5cnn(C)c5)ccc4cn3)ccn2)CC1
Result: false

Task: Thanks! And C=CC(=O)Nc1cc(Nc2nccc(-c3cn(C)c4ccccc34)n2)c(OC)cc1N(C)CCN(C)C + CNC(=O)c1ccc(Nc2nc(OC3CCCC3)c3c(-c4ccc5nc(C)oc5c4)c[nH]c3n2)c(OC)c1 ?
Result: false

Task: What do you have for CC(C)CC(NC(=O)C(Cc1ccccc1)NC(=O)c1cnccn1)B(O)O (stereo unspecified) + CN1CCN(c2cc(C(=O)Nc3cc4cc(-c5cnn(C)c5)ccc4cn3)ccn2)CC1 ?
Result: true

Task: Try this molecule next: NC(=O)C(=Cn1cnc(-c2cc(C(F)(F)F)cc(C(F)(F)F)c2)n1)c1cncnc1 + CN1CCN(c2cc(C(=O)Nc3cc4cc(-c5cnn(C)c5)ccc4cn3)ccn2)CC1
Result: false

Task: Also need CC(C)CC(NC(=O)C(Cc1ccccc1)NC(=O)c1cnccn1)B(O)O (stereo unspecified) + CNC(=O)c1ccc(Nc2nc(OC3CCCC3)c3c(-c4ccc5nc(C)oc5c4)c[nH]c3n2)c(OC)c1 , thanks.
Result: true

Task: Quick one: NC(=O)C(=Cn1cnc(-c2cc(C(F)(F)F)cc(C(F)(F)F)c2)n1)c1cncnc1 + CNC(=O)c1ccc(Nc2nc(OC3CCCC3)c3c(-c4ccc5nc(C)oc5c4)c[nH]c3n2)c(OC)c1
Result: false

---

Tested on: 598228-144-R-J1-PDC complex spheroids, viability
Assay: Anticancer human tumor 598228-144-R-J1-PDC cell line growth inhibition [CLK];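 further: spheroids exposed to compounds for seven days before readout; 100% = DMSO vehicle control wells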
Conditions: second compound 0.0316 µM; first compound 1 µM; hits give low values
Reported endpoint: viability, T/C (%)
Please state the figure in %; there is no need to write the unit.

Task: For the molecule CC(Nc1ccc2c(c1)OCCn1cc(N3C(=O)OCC3C(F)F)nc1-2)C(N)=O (stereo not given) + CNC(=O)c1ccc(Nc2nc(OC3CCCC3)c3c(-c4ccc5nc(C)oc5c4)c[nH]c3n2)c(OC)c1 , what viability, T/C is on record?
Result: 38.2

Task: Also check COc1cccc2c1C(=O)c1c(O)c3c(c(O)c1C2=O)CC(O)(C(=O)CO)CC3OC1CC(N)C(O)C(C)O1 (stereo not given) + CN1CCN(c2cc(C(=O)Nc3cc4cc(-c5cnn(C)c5)ccc4cn3)ccn2)CC1
Result: 7.36

Task: Then what about the molecule C#Cc1c(F)ccc2cc(O)cc(-c3ncc4c(N5CC6CCC(C5)N6)nc(OCC56CCCN5CC(F)C6)nc4c3F)c12 (stereo not given) + CNC(=O)c1ccc(Nc2nc(OC3CCCC3)c3c(-c4ccc5nc(C)oc5c4)c[nH]c3n2)c(OC)c1 ?
Result: 125

Task: What about this molecule? COC1C=CCC(C)C(C)S(=O)(=O)NC(=O)c2ccc3c(c2)N(CC2CCC21)CC1(CCCc2cc(Cl)ccc21)CO3 (stereo not given) + CN1CCN(c2cc(C(=O)Nc3cc4cc(-c5cnn(C)c5)ccc4cn3)ccn2)CC1
Result: 75

Task: What do you get for CC(Nc1ccc2c(c1)OCCn1cc(N3C(=O)OCC3C(F)F)nc1-2)C(N)=O (stereo not given) + CN1CCN(c2cc(C(=O)Nc3cc4cc(-c5cnn(C)c5)ccc4cn3)ccn2)CC1 ?
Result: 47.1
